- Experiment Notes: Tanguay_ZF_120hpf_SOMI_legacy: (Legacy) Oregon State University Tanguay Lab 120 Hour Post-fertilization zebrafish Assay for Somite Malformation (AID 2283647)
Records with an inconclusive call do not appear. Calls of active or inactive are those of the source. The calls were made as follows: active = hit-call score of the fitted dose curve at least 0.9, where 1 is the maximum; inconclusive = response in the unintended direction; inactive = score below 0.9.
Classes used: active, inactive

{"columns": ["Molecule", "Category Label"],
 "data": [
  ["Cc1cc(C)nc(Nc2ccccc2)n1", "inactive"],
  ["COc1cc(Cl)c(OC)cc1Cl", "inactive"],
  ["Nc1cnn(-c2ccccc2)c(=O)c1Cl", "inactive"],
  ["Cc1ccc(N=CN(C)C=Nc2ccc(C)cc2C)c(C)c1", "inactive"],
  ["N#CN=C1SCCN1Cc1ccc(Cl)nc1", "inactive"],
  ["N#Cc1c(Cl)cccc1Cl", "inactive"],
  ["COc1ccc(-c2ccccc2)cc1NNC(=O)OC(C)C", "inactive"],
  ["CCCN(CC)CC1COC2(CCC(C(C)(C)C)CC2)O1 (stereo not given)", "inactive"],
  ["CCSC(=O)N1CCCCCC1", "inactive"],
  ["CS(=O)(=O)c1ccc(C(=O)C2C(=O)CCCC2=O)c([N+](=O)[O-])c1", "inactive"],
  ["CCCCC(C#N)(Cn1cncn1)c1ccc(Cl)cc1 (stereo not given)", "inactive"],
  ["CC(C)N1C(=O)c2ccccc2NS1(=O)=O", "inactive"],
  ["CC1(C)CON(Cc2ccccc2Cl)C1=O", "inactive"],
  ["CCN(CC)C(=O)C(C)Oc1cccc2ccccc12 (stereo not given)", "inactive"],
  ["COCC(C)N(C(=O)CCl)c1c(C)csc1C (stereo not given)", "active"],
  ["CCOc1cc(C(C)(C)C)ccc1C1COC(c2c(F)cccc2F)=N1 (stereo not given)", "inactive"],
  ["CS(=O)(=O)c1cc(C(F)(F)F)ccc1C(=O)c1cnoc1C1CC1", "inactive"],
  ["COCC(=O)N(c1c(C)cccc1C)C(C)C(=O)OC (stereo not given)", "inactive"],
  ["CCCCC(O)(Cn1cncn1)c1ccc(Cl)cc1Cl (stereo not given)", "inactive"],
  ["Clc1cccc(C(Cl)(Cl)Cl)n1", "inactive"]
]}
